Can you tell me binding vs Reference Sequence (=100%) for the items I'm about to list?
# measuredTarget: T1, purified interference factor(s) from serum of Donor C
# T1 construct: text names Donors 8, 19 and 30
# assay: Biacore, immobilized interference factor
Give a bare numeral; the unit % is implied.

Any idea what binding vs Reference Sequence (=100%) was measured for SEQ ID NO 80 (VHH, T110Q, S112G, S113G) VHH: EVQLVESGGGLVQPGGSLRLSCAASRSIGRLDRMGWYRHRPGEPRELVATITGGSSINYGDSVKGRFTISIDNSKNTVYLQMNSLRPEDTAVYYCNFNKYVTSRDTWGQGTLVQVGG ?
58

# input binder: SEQ ID NO 76 (VHH, C-terminal: GGG) VHH: EVQLVESGGGLVQPGGSLRLSCAASRSIGRLDRMGWYRHRPGEPRELVATITGGSSINYGDSVKGRFTISIDNSKNTVYLQMNSLRPEDTAVYYCNFNKYVTSRDTWGQGTLVTVSS ; wanted: its binding vs Reference Sequence (=100%)
20

# query: binding vs Reference Sequence (=100%) of entry SEQ ID NO 88 (VHH, C-terminal: A; L11S, T110Q) VHH: EVQLVESGGGSVQPGGSLRLSCAASRSIGRLDRMGWYRHRPGEPRELVATITGGSSINYGDSVKGRFTISIDNSKNTVYLQMNSLRPEDTAVYYCNFNKYVTSRDTWGQGTLVQVSS
11

Entry under review: SEQ ID NO 87 (VHH, L11S, S112G, S113G) VHH: EVQLVESGGGSVQPGGSLRLSCAASRSIGRLDRMGWYRHRPGEPRELVATITGGSSINYGDSVKGRFTISIDNSKNTVYLQMNSLRPEDTAVYYCNFNKYVTSRDTWGQGTLVTVGG . Reported binding vs Reference Sequence (=100%)?
39
